Biological target: HCV NS3/4A PR (S139A) (Hepatitis C virus subtype 1a, UniProt A8DG50, A1066T/I1043Q/I1044E/L1039E/L1040E/L1047Q/S1165A, form not given)
Experiment: Biacore 8K binding kinetics of PRSIM binding molecules
Conditions: 10 nM simeprevir present
EXPERIMENTAL_READOUT: kd (s⁻¹)

# MOLECULE, EXPERIMENTAL_READOUT, ASSAY_VALUE
records = [
    ("PRSIM_72: scFv PRSIM binding molecule, SEQ ID NO: 14 (protein, PRSIM_72) scFv: QVQLVQSGAEVKKPGSSVKVSCKASGGTFSSYAISWVRQAPGQGLEWMGGIIPIFGTANYAQKFQGRVTITADESTSTAYMELSSLRSEDTAVYYCARGMAHFYQFDLWGQGTLVTVSSGGGGSGGGGSGGGGSAQSVLTQPPSASGTPGQRVTISCSGSSSNIGSNTVNWYQQLPGTAPKLLIYSNNQRPSGVPDRFSGSKSGTSASLAISGLQSEDEADYYCAAGDHDHEHVVFGGGTKLTVL", "kd", 0.00118),
    ("PRSIM_33: Tn3 PRSIM binding molecule, SEQ ID NO: 7 (protein, PRSIM_33) RLDAPSQIEVKDVTDTTALITWYPPGRWYDDIWYFELTYGIKDVPGDRTTIKLARGDDVYSIGNLKPDTEYEVSLISWGPDRGDRAGSNPAKITFKTGL", "kd", 0.0303),
    ("PRSIM_23: Tn3 protein specific for HCV NS3/4A PR (S139A):simeprevir complex, SEQ ID NO: 5 (protein, PRSIM_23) RLDAPSQIEVKDVTDTTALITWVDPRYDDIWWFELTYGIKDVPGDRTTIKLYLNDPYYSIGNLKPDTEYEVSLISYTGDSYSRSGSNPAKITFKTGL", "kd", 0.0318),
    ("PRSIM_36: Tn3 PRSIM binding molecule, SEQ ID NO: 8 (protein, PRSIM_36) RLDAPSQIEVKDVTDTTALITWSWPRDDDYDIWYFELTYGIKDVPGDRTTIKLLNYASPYSIGNLKPDTEYEVSLISVVPDTYGRGTSNPAKITFKTGL", "kd", 0.0498),
    ("PRSIM_57: scFv specific for HCV NS3/4A PR (S139A):simeprevir complex, SEQ ID NO: 12 (protein, PRSIM_57) scFv: QVQLVQSGAEVKKPGSSVKVSCKASGGTFSSYAISWVRQAPGQGLEWMGGIIPIFGTANYAQKFQGRVTITADESTSTAYMELSSLRSEDTAVYYCARHTNYITVFDYWGQGTLVTVSSGGGGSGGGGSGGGGSAQSVLTQPPSASGTPGQRVTISCSGSSSNIGSNTVNWYQQLPGTAPKLLIYSNNQRPSGVPDRFSGSKSGTSASLAISGLQSEDEADYYCAAWDHHWEQVVFGGGTKLTVL", "kd", 0.26),
]
